Assayed Target: human, KCNT1 (Homo sapiens (Human), UniProt Q5JUK3)
Sequence (Q5JUK3 whole entry): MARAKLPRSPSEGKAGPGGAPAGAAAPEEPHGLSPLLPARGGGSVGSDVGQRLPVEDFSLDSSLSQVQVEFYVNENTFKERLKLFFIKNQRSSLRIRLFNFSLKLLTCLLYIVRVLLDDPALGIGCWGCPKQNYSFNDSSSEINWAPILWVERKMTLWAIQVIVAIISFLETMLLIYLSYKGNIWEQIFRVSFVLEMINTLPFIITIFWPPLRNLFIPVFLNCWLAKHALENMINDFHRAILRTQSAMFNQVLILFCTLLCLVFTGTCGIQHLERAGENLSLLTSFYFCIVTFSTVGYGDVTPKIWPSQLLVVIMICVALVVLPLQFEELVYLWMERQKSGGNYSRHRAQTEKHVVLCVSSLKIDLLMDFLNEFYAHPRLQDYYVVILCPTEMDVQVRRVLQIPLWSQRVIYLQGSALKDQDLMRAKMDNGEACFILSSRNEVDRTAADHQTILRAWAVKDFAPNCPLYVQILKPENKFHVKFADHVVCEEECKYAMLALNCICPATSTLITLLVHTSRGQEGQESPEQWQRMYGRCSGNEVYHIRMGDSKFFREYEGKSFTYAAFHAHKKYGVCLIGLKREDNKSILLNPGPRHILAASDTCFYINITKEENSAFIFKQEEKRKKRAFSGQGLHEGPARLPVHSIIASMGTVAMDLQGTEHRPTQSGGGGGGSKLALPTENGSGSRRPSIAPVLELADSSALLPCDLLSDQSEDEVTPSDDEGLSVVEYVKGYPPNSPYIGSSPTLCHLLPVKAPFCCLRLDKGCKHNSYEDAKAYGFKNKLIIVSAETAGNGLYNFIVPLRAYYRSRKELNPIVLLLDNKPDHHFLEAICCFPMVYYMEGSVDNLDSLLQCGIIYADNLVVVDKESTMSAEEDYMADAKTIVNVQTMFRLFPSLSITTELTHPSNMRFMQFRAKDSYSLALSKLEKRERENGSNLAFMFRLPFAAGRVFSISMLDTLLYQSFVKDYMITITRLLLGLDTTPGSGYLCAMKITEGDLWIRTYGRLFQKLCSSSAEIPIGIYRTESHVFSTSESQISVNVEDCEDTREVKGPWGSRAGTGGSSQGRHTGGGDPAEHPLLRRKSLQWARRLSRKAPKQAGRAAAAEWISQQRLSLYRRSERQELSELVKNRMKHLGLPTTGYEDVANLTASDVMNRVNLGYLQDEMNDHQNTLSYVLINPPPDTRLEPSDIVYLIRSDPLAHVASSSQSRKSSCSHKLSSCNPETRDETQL
Assay Name: FLIPR Tl/K Flux Assay
Experimental Parameters: HEK293 cells stably expressing human KCNT1; Tl+ flux stimulated with EC80 of agonist Loxapine
pIC50: −log10 of the molar value.
List of pIC50 values.

# Compound, pIC50
data = [
    ("COc1cc(-c2cc3n(n2)CC[C@@H]3NC(=O)c2cnn(C(F)(F)F)c2)c(F)cn1 [Compound I-577a]", "> 6.60"),
    ("Cn1nc(C(F)(F)F)cc1C(=O)N[C@@H]1CCCn2nc(-c3ccnc(C4CC4)c3)cc21 [Compound I-64b]", "6.00 to 6.30"),
    ("CC(C)Oc1cc(C(=O)N[C@H]2CCn3nc(-c4cc(C(F)(F)F)ncc4F)cc32)ccn1 [Compound I-546a]", "> 6.60"),
    ("Cn1nc(C(F)(F)F)nc1C(=O)N[C@H]1CCCn2nc(-c3cc(C4CC4)ncc3F)cc21 [Compound I-495a]", "> 6.60"),
    ("O=C(N[C@H]1CCCn2nc(-c3cc(C4CC4)ncc3F)cc21)c1ccnc(OC(F)(F)F)c1 [Compound I-498a]", "> 6.60"),
    ("Cn1nc(C(C)(F)F)cc1C(=O)N[C@H]1CCCn2nc(-c3ccnc(C(F)(F)F)c3)cc21 [Compound I-363a]", "> 6.60"),
    ("Cc1cc(C(=O)N[C@H]2CCCn3nc(-c4ccnc(C(F)(F)F)c4)cc32)n(-c2ccccc2)n1 [Compound I-448a]", "> 6.60"),
    ("COc1cc(-n2cc3c(n2)CCCC3NC(=O)c2cc(C(F)(F)F)nn2C)ccn1 (racemic)", "6.30 to 6.60"),
    ("O=C(N[C@H]1CCn2nc(-c3ccnc(C(F)(F)F)c3)cc21)c1ccn2nccc2c1 [Compound I-550a]", "> 6.60"),
    ("Cc1nc(C(F)(F)F)oc1C(=O)N[C@H]1CCc2cnc(-c3ccnc(C(F)(F)F)c3)cc21 [Compound I-192a]", "6.30 to 6.60"),
    ("Cc1cnc(C(F)(F)F)cc1-c1cc2n(n1)CCCC[C@H]2NC(=O)c1cc(C(F)(F)F)nn1C [Compound I-311b]", "< 6.00"),
    ("O=C(N[C@H]1CCCn2nc(-c3ccnc(C(F)(F)F)c3)cc21)c1cc2n(n1)CCCO2 [Compound I-413a]", "< 6.00"),
    ("O=C(N[C@H]1CCCn2nc(-c3ccnc(C(F)(F)F)c3)cc21)c1ccc(F)c(OC(F)(F)F)c1 [Compound I-411a]", "> 6.60"),
    ("Cc1cccc(C(=O)N[C@@H]2CCCCc3nn(-c4ccnc(C5CC5)c4)cc32)c1 [Compound I-58b]", "6.00 to 6.30"),
    ("Cn1nc(C(F)(F)F)cc1C(=O)NC1Cc2cc(-c3ccnc(C(F)(F)F)c3)nn2C1 (stereo not drawn)", "> 6.60"),
]

###

Assayed Target: human, KCNT1 (Homo sapiens (Human), UniProt Q5JUK3)
Assay Name: FLIPR Tl/K Flux Assay
Experimental Parameters: HEK293 cells stably expressing human KCNT1; Tl+ flux stimulated with EC80 of agonist Loxapine
List of IC50 values.

# Molecule, Assayed Target, IC50
rows = [
    ("O=C(N[C@H]1CCn2nc(-c3cc(C(F)(F)F)ncc3F)cc21)C12CC(F)(C1)C2 [Compound I-552a]", "human, KCNT1 (Homo sapiens (Human), UniProt Q5JUK3)", "< 250 nM"),
    ("COc1cc(-c2cc3n(n2)CC[C@@H]3NC(=O)c2nc(C)nn2C)ccn1 [Compound I-230a]", "human, KCNT1 (Homo sapiens (Human), UniProt Q5JUK3)", "> 1000 nM"),
    ("O=C(N[C@H]1CCCc2nc(-c3ccnc(C(F)(F)F)c3)oc21)c1ccnc(OC(F)(F)F)c1 [Compound I-186a]", "human, KCNT1 (Homo sapiens (Human), UniProt Q5JUK3)", "< 250 nM"),
    ("Cn1nc(C(F)(F)F)cc1C(=O)NC1(C)CCCc2nn(-c3ccnc(C(F)(F)F)c3)cc21 (stereo not shown) [Compound I-51]", "human, KCNT1 (Homo sapiens (Human), UniProt Q5JUK3)", "> 1000 nM"),
    ("COc1cc(C(=O)N[C@H]2CCCn3nc(-c4ccnc(C(F)(F)F)c4)cc32)nc(C(F)(F)F)n1 [Compound I-424a]", "human, KCNT1 (Homo sapiens (Human), UniProt Q5JUK3)", "< 250 nM"),
    ("CCOc1cc(-n2cc3c(n2)CCCC[C@H]3NC(=O)c2cc(C(F)(F)F)nn2C)ccn1 [Compound I-360b]", "human, KCNT1 (Homo sapiens (Human), UniProt Q5JUK3)", "> 1000 nM"),
    ("COc1cc(-c2nc3c(o2)[C@@H](NC(=O)c2cncc(C(F)(F)F)n2)CCC3)c(Cl)cn1 [Compound I-161a]", "human, KCNT1 (Homo sapiens (Human), UniProt Q5JUK3)", "250 to 500 nM"),
]

meta.source: patent US20250313548A1
